// cross-study collection: pKi for Prostaglandin G/H synthase 2 (Homo sapiens)
Schema: pKi number; meaning minus log10 of the concentration expressed in molar units.

given smiles	target of assay	pKi
O=C(/C=C/c1ccc(O)c(O)c1)NCCc1c[nH]c2ccc(O)cc12	Prostaglandin G/H synthase 2 (Homo sapiens)	4.18

Prompt: Please give measured pKi of the following entry: Cc1ccc(Nc2c(Cl)cccc2Cl)c(CC(=O)O)c1
Response: 5.92

Prompt: // fetch pKi given entry C[C@H](CS)C(=O)N1CCC[C@H]1C(=O)O
Response: 4.92
